Test: Determination of kinetic solubility
Format: physicochemical
Settings: aqueous buffer, kinetic from dmso stock, pH 3.0 buffer, 2.5% DMSO, room temperature, read-out: C eff
property_name: solubility kinetic at 6 h

>>> measurement("N#CCCNc1nonc1-c1nc2ccccc2n1CC(=O)c1ccc(NC(=O)CN)cc1")
"> 200 µM"
>>> measurement("N#CCCNc1nonc1-c1nc2ccccc2n1CC(=O)c1ccc(NC(=O)[C@@H](N)CCCCN)cc1")
"> 200 µM"
>>> measurement("CC(C)C[C@H](N)C(=O)Nc1ccc(C(=O)Cn2c(-c3nonc3NCCC#N)nc3ccccc32)cc1")
"189 µM"
>>> measurement("N#CCCNc1nonc1-c1nc2ccccc2n1CC(=O)c1ccc(N)cc1 [Parent Drug, reference compound]")
"< 10 µM"
>>> measurement("C[C@H](N)C(=O)Nc1ccc(C(=O)Cn2c(-c3nonc3NCCC#N)nc3ccccc32)cc1")
"> 200 µM"

* * *

Attribute: solubility kinetic at 6 h
Test: Determination of kinetic solubility
Type: physicochemical
Conditions: aqueous buffer, kinetic from dmso stock, pH 5.0 buffer, 2.5% DMSO, room temperature, read-out: C eff
property_name: solubility kinetic at 6 h (µM)

>>> measurement("N#CCCNc1nonc1-c1nc2ccccc2n1CC(=O)c1ccc(NC(=O)CN)cc1")
71
>>> measurement("C[C@H](N)C(=O)Nc1ccc(C(=O)Cn2c(-c3nonc3NCCC#N)nc3ccccc32)cc1")
55
>>> measurement("CC(C)C[C@H](N)C(=O)Nc1ccc(C(=O)Cn2c(-c3nonc3NCCC#N)nc3ccccc32)cc1")
37

* * *

Test: Pharmacokinetic studies in xenografted mice (plasma and tumor)
Format: in vivo, CD-1 Nu/Nu female mice
Settings: female, CD-1 Nu/Nu, mouse, tumor, iv; analyte Example 1 (free base), after i.v. 19.6 mg Example 1, xenografted mice; read-out: Cmax of Example 1 in tumors
property_name: Cmax (ng/mL)

>>> measurement("N#CCCNc1nonc1-c1nc2ccccc2n1CC(=O)c1ccc(NC(=O)[C@@H](N)CCCCN)cc1")
6010

* * *

Assay: Pharmacokinetic studies in xenografted mice (plasma and tumor)
Type: in vivo, CD-1 Nu/Nu female mice
Details: female, CD-1 Nu/Nu, mouse, tumor, iv; after i.v. 8 mg/kg Parent Drug, 4th application, xenografted mice; read-out: Cmax of Parent Drug in tumors
property_name: Cmax (ng/mL)

>>> measurement("N#CCCNc1nonc1-c1nc2ccccc2n1CC(=O)c1ccc(N)cc1 [Parent Drug, reference compound]")
3210

* * *

Experiment: Determination of the maximum tolerated dose (MTD), once weekly i.v.
Settings: athymic nude, mouse, in vivo, iv; i.v. once weekly; set 15-20% lower than dose causing body weight loss; read-out: MTD in tumor-bearing mice
property_name: MTD (mg/kg)

>>> measurement("N#CCCNc1nonc1-c1nc2ccccc2n1CC(=O)c1ccc(N)cc1 [Parent Drug, reference compound]")
8

* * *

Test: Pharmacokinetic studies in xenografted mice (plasma and tumor)
Format: in vivo, CD-1 Nu/Nu female mice
Conditions: female, CD-1 Nu/Nu, mouse, plasma, iv; after i.v. 8 mg/kg Parent Drug, xenografted mice; read-out: AUClast of Parent Drug in plasma
property_name: AUC(0-t) (ng·h/mL)

>>> measurement("N#CCCNc1nonc1-c1nc2ccccc2n1CC(=O)c1ccc(N)cc1 [Parent Drug, reference compound]")
44800

* * *

Assay: Pharmacokinetic studies in xenografted mice (plasma and tumor)
Format: in vivo, CD-1 Nu/Nu female mice
Settings: female, CD-1 Nu/Nu, mouse, tumor, iv; after i.v. 8 mg/kg Parent Drug, xenografted mice; read-out: AUClast of Parent Drug in tumors
property_name: AUC(0-t) (ng·h/mL)

>>> measurement("N#CCCNc1nonc1-c1nc2ccccc2n1CC(=O)c1ccc(N)cc1 [Parent Drug, reference compound]")
45500
